- Test system: MIA PaCa-2
- EXPERIMENT SUMMARY: Antiproliferative activity against human MIA PaCa-2 cells assessed as inhibition of cell proliferation incubated for 72 hrs by SRB assay
- Assay type: functional, cell-based
- MEASUREMENT SETUP: MIA PaCa-2, 72 h
METRIC NAME: pIC50
Note on pIC50: it is the negative log10 of concentration, concentration in mol/L.

Solved cases (2 shown):
| ENTRY SMILES | pIC50 |
| --- | --- |
| COc1cc2c(NC(=O)OC(C)(C)C)c3c(c(-c4ccc5c(c4)OCO5)c2cc1OC)C(=O)OC3 | 6.79 |
| COc1cc2c(OCCCc3cn([C@H]4O[C@@H](C)[C@H](OC(C)=O)[C@@H](OC(C)=O)[C@H]4OC(C)=O)nn3)c3c(c(-c4ccc5c(c4)OCO5)c2cc1OC)C(=O)OC3 | 7.40 |

Let us examine a further case.
Please fill in: pIC50 reported for COc1cc2c(OCCOCc3cn([C@H]4O[C@@H](C)[C@H](OC(C)=O)[C@@H](OC(C)=O)[C@H]4OC(C)=O)nn3)c3c(c(-c4ccc5c(c4)OCO5)c2cc1OC)C(=O)OC3 = 6.12

---

- System: MIA PaCa-2
- EXPERIMENT SUMMARY: Antiproliferative activity against human MIA PaCa-2 cells assessed as inhibition of cell proliferation at 1 uM incubated for 72 hrs by SRB assay relative to control
- Type: functional
METRIC NAME: inhibition at 1 µM (%)
# number only, unit % dropped from output

Solved cases (4 shown):
| ENTRY SMILES | STUDY TARGET | inhibition at 1 µM, % |
| --- | --- | --- |
| COc1cc2c(OCc3cn([C@H]4O[C@@H](C)[C@H](O)[C@@H](O)[C@H]4O)nn3)c3c(c(-c4ccc5c(c4)OCO5)c2cc1OC)C(=O)OC3 | MIA PaCa-2 | 0.95 |
| COC(=O)CNc1c2c(c(-c3ccc4c(c3)OCO4)c3cc(OC)c(OC)cc13)C(=O)OC2 | MIA PaCa-2 | 10.2 |
| COc1cc2c(NC(=O)[C@H](C)N)c3c(c(-c4ccc5c(c4)OCO5)c2cc1OC)C(=O)OC3 | MIA PaCa-2 | 0.64 |
| COc1cc2c(O)c3c(c(-c4ccc5c(c4)OCO5)c2cc1OC)C(=O)OC3 | MIA PaCa-2 | 70.1 |

Please fill in: inhibition at 1 µM reported for COc1cc2c(NS(N)(=O)=O)c3c(c(-c4ccc5c(c4)OCO5)c2cc1OC)C(=O)OC3 = 29

Please fill in: inhibition at 1 µM reported for COc1cc2c(OCCOCc3cn([C@H]4O[C@@H](C)[C@H](OC(C)=O)[C@@H](OC(C)=O)[C@H]4OC(C)=O)nn3)c3c(c(-c4ccc5c(c4)OCO5)c2cc1OC)C(=O)OC3 = 72.4

Please fill in: inhibition at 1 µM reported for COc1cc2c(OCc3cn([C@H]4O[C@@H](C)[C@H](OC(C)=O)[C@@H](OC(C)=O)[C@H]4OC(C)=O)nn3)c3c(c(-c4ccc5c(c4)OCO5)c2cc1OC)C(=O)OC3 = 83.7

Please fill in: inhibition at 1 µM reported for COc1cc2c(NC(=O)OC(C)(C)C)c3c(c(-c4ccc5c(c4)OCO5)c2cc1OC)C(=O)OC3 = 52.5

Please fill in: inhibition at 1 µM reported for COc1cc2c(NC(=O)[C@@H](N)COC(C)=O)c3c(c(-c4ccc5c(c4)OCO5)c2cc1OC)C(=O)OC3 = 3.38

Please fill in: inhibition at 1 µM reported for CNc1c2c(c(-c3ccc4c(c3)OCO4)c3cc(OC)c(OC)cc13)C(=O)OC2 = 92.3

Please fill in: inhibition at 1 µM reported for COc1cc2c(OCCCc3cn([C@H]4O[C@@H](C)[C@H](OC(C)=O)[C@@H](OC(C)=O)[C@H]4OC(C)=O)nn3)c3c(c(-c4ccc5c(c4)OCO5)c2cc1OC)C(=O)OC3 = 93.6
